assay: protein stability index of a GFP-peptide fusion (GPS, HEK-293T) (PSI 1-6); higher = more stable; conditions: treatment: DMSO; c terminus: a fixed tail appended;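 also: 24-mer peptide tiles fused after GFP, lentivirally expressed, FACS-sorted into six equal bins by GFP/DsRed ratio, decoded by Illumina sequencing, PSI is the read-weighted mean bin number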
parameter: protein stability index
Give bare numbers.

Take a look at these entries with their results.
- biosequence: "DKTCSKTKNKSKHALRKKQLKRQK [FAM9B]"
  endpoint-value: 4.49
- biosequence: "TRGIAKIISAHIHPVCSLCWSRDG [RBBP5]"
  endpoint-value: 2.45
- biosequence: "SSWPFSIQDVVQPLTLQVQRPLVS [AUP1]"
  endpoint-value: 2.77
- biosequence: "MEDSFLQSFGRLSLQPQQQQQRQR [N4BP2L1]"
  endpoint-value: 4.69
- biosequence: "KPYIAAHFDVLPTEFTLGDDKHYG [PTPRD]"
  endpoint-value: 3.28

Please go through the list and note protein stability index for each sequence.
1. REARKRALARKQAQEQLRPQTPEP [RSPH3]
2. SMNWGINLLISLTFLTVTDLIGLP [SLC2A12]
3. ADIPQDQLVVMHPTPQVDELDILP [BTBD10]
4. NCNWFCEGSFNGSEKETMQFLNDR [KRT33B]
5. LAGAALEPAGGGRSREARSRLLLL [SMAD6]
6. EELNKEVASNSELVQSSRSEVTEL [KRT16]

1. 5.04
2. 3.3
3. 5.11
4. 3.54
5. 3.38
6. 5.51

Please go through the list and note protein stability index for each sequence.
1. KKEKIIEDKTFGLKNKKGAKQQKF [ZC3H15]
2. RALATSNARAQQRAAAQQRRSFLN [GNAS]

1: 4.5; 2: 4.02
